# Tested on: Pasteurella multocida PM 10775 (080130003051, BRD field isolate)
# experiment description: MIC, broth-microdilution (CLSI VET01-A4), strain PM 10775
# Type: cell-based
# experimental setup: Pasteurella multocida strain PM 10775, broth-microdilution; unit assumed
recorded endpoint: MIC PM 10775

A selection of reference data follows.
> print(dat)
                                   molecule      reading
1  O=C(N[C@@H](CO)C(=O)NO)c1ccc(C#Cc2ccc(CN3CCCOCC3)cc2)cc1 [Compound 215]  ≤ 0.1 µg/mL
2  CC(C)(O)C(NC(=O)c1ccc(C#Cc2ccc(CNCC3CCCO3)cc2)cc1)C(=O)NO (stereo not shown) [Compound 234]  ≤ 0.1 µg/mL
3  Cc1cnc(CNCc2ccc(C#Cc3ccc(C(=O)N[C@H](C(=O)NO)C(C)(C)O)cc3)s2)o1 [Compound 299]  ≤ 0.1 µg/mL

As a next step, examine the molecule that follows.
Req: State the recorded MIC PM 10775 for this entry: CN(C)c1ccc(CNCc2ccc(C#Cc3ccc(C(=O)N[C@@H](CO)C(=O)NO)cc3)cc2)cc1 [Compound 134]
Resp: ≤ 0.1 µg/mL

* * *

# Tested on: Pasteurella multocida PM 10775 (080130003051, BRD field isolate)
# experiment description: MIC, broth-microdilution (CLSI VET01-A4), strain PM 10775
# Format: cell-based
# experimental setup: Pasteurella multocida strain PM 10775, broth-microdilution; unit assumed
recorded endpoint: MIC PM 10775

Example molecules with recorded MIC PM 10775:
> print(dat)
                                   molecule  recorded.endpoint      reading
1  CCCNCc1ccc(C#Cc2ccc(C(=O)N[C@H](C(=O)NO)C(C)C)cc2)cc1       MIC PM 10775  ≤ 0.1 µg/mL
2  CC(C)([C@H](NC(=O)c1ccc(C#Cc2ccc(CNC3CCC3)cc2)cc1)C(=O)NO)S(C)(=O)=O       MIC PM 10775  ≤ 0.1 µg/mL
3  CC(C)([C@H](NC(=O)c1ccc(C#Cc2ccc(CNCC(F)(F)F)nc2)cc1)C(=O)NO)S(C)(=O)=O       MIC PM 10775  ≤ 0.1 µg/mL
4  CC(C)[C@H](NC(=O)c1ccc(C#Cc2ccc(CN3CCS(=O)(=O)CC3)cc2)cc1)C(=O)NO       MIC PM 10775  ≤ 0.1 µg/mL
5  CC[C@H](C)[C@H](NC(=O)c1ccc(C#Cc2ccc(CNC(C)COC)cc2)cc1)C(=O)NO (stereo partly shown)       MIC PM 10775  ≤ 0.1 µg/mL

Req: Would you kindly share the measured MIC PM 10775 for CON=C(C)[C@H](NC(=O)c1ccc(C#Cc2ccc(CNCC3CCCO3)cc2)cc1)C(=O)NO (stereo partly shown) ?
Resp: 0.8 µg/mL

Req: // repeat for Cc1ccc(CNCc2ccc(C#Cc3ccc(C(=O)N[C@@H](CO)C(=O)NO)cc3)cc2)cc1C and report
Resp: ≤ 0.1 µg/mL

Req: What would you report for CC(C)[C@H](NC(=O)c1ccc(C#Cc2ccc(CNC3CCCC3)cc2)cc1)C(=O)NO ?
Resp: ≤ 0.1 µg/mL

Req: Likewise for O=C(N[C@@H](CO)C(=O)NO)c1ccc(C#Cc2ccc(CNC3CCCCC3)cc2)cc1 ?
Resp: ≤ 0.1 µg/mL

Req: // same read-out, input: CC(C)(O)[C@H](NC(=O)c1ccc(C#Cc2ccc(CNCc3ncccn3)nc2)cc1)C(=O)NO
Resp: 0.4 µg/mL

Req: Ok, now CC[C@H](C)[C@H](NC(=O)c1ccc(C#Cc2ccc(CNCC(C)(C)C)cc2)cc1)C(=O)NO
Resp: ≤ 0.1 µg/mL

Req: Also CC(C)([C@H](NC(=O)c1ccc(C#Cc2ccc(CNCc3ncccn3)nc2)cc1)C(=O)NO)S(C)(=O)=O ?
Resp: 0.2 µg/mL

Req: # repeat for CC(=O)C(NC(=O)c1ccc(C#Cc2ccc(CNCc3ccnc(Cl)c3)cc2)cc1)C(=O)NO (stereo not shown)
Resp: 0.8 µg/mL

Req: How about this molecule: CC(C)([C@H](NC(=O)c1ccc(C#Cc2ccc(CN3CCOCC3)cc2)cc1)C(=O)NO)S(C)(=O)=O
Resp: ≤ 0.1 µg/mL

Req: And the next one, CC(C)[C@H](NC(=O)c1ccc(C#Cc2ccc(CNCc3ccncc3)cc2)cc1)C(=O)NO ?
Resp: ≤ 0.1 µg/mL

Req: Another: CSC(C)(C)[C@H](NC(=O)c1ccc(C#Cc2ccc(CNCc3nccs3)s2)cc1)C(=O)NO
Resp: ≤ 0.1 µg/mL

Req: Moving on to the next molecule: CCNCc1ccc(C#Cc2ccc(C(=O)N[C@@H](CO)C(=O)NO)cc2)cc1
Resp: ≤ 0.1 µg/mL

Req: Another: CC(C)(C)C1CCN(Cc2ccc(C#Cc3ccc(C(=O)N[C@@H](CO)C(=O)NO)cc3)cc2)CC1
Resp: ≤ 0.1 µg/mL

Req: One more molecule: CC(C)NCc1ccc(C#Cc2ccc(C(=O)N[C@H](C(=O)NO)C(C)C)cc2)cc1
Resp: ≤ 0.1 µg/mL
